# Tested on: Escherichia coli TOP10
# Assay summary: shrunken log2 fold change of peptide-encoding DNA abundance (4.5 h post-induction vs induction); higher = less antimicrobial activity (less host growth inhibition)
# Run conditions: time post-induction: 4.5 h; library: site-saturation at positions 5, 18, 19, 20

Sequence code | shrunken log2 fold change
RRIRPRPPRLPRPRPRPVHPPRP | 0.127
RRIRSRPPRLPRPRPRPMVGPRP | 0.158
RRIRLRPPRLPRPRPRPEFTPRP | -0.0622
RRIRYRPPRLPRPRPRPSYGPRP | -0.383
RRIRCRPPRLPRPRPRPNKMPRP | -0.393
RRIRTRPPRLPRPRPRPFIRPRP | 0.00496
RRIRTRPPRLPRPRPRPYLRPRP | -0.163
RRIRMRPPRLPRPRPRPMNLPRP | 0.11
RRIRVRPPRLPRPRPRPWRNPRP | 0.065
RRIRQRPPRLPRPRPRPRNAPRP | 0.483
RRIRIRPPRLPRPRPRPCRVPRP | -1.39
RRIRPRPPRLPRPRPRPDYRPRP | -0.321
RRIRRRPPRLPRPRPRPALVPRP | 0.74
RRIRWRPPRLPRPRPRPQEFPRP | 0.00161
RRIRGRPPRLPRPRPRPKTQPRP | 0.929

----------
Entries and their shrunken log2 fold change values follow.
# System: Escherichia coli TOP10
# Assay summary: shrunken log2 fold change of peptide-encoding DNA abundance (4.5 h post-induction vs induction); higher = less antimicrobial activity (less host growth inhibition)
# Run conditions: time post-induction: 4.5 h; library: site-saturation at positions 5, 18, 19, 20

Sequence code | shrunken log2 fold change
RRIRYRPPRLPRPRPRPNVRPRP | -0.0227
RRIRMRPPRLPRPRPRPCNYPRP | 0.0171
RRIRPRPPRLPRPRPRPRCRPRP | 0.217
RRIRLRPPRLPRPRPRPNKWPRP | -0.066
RRIRCRPPRLPRPRPRPMGNPRP | -0.729
RRIRFRPPRLPRPRPRPRANPRP | 0.509
RRIRDRPPRLPRPRPRPDQYPRP | 0.00642
RRIRERPPRLPRPRPRPNFQPRP | 0.0442
RRIRIRPPRLPRPRPRPPKHPRP | 0.00437
RRIRIRPPRLPRPRPRPTTLPRP | -0.506
RRIRLRPPRLPRPRPRPNKYPRP | -0.742
RRIRCRPPRLPRPRPRPAPHPRP | 0.625
RRIRVRPPRLPRPRPRPGYDPRP | -0.422
RRIRVRPPRLPRPRPRPPADPRP | 0.565
RRIRSRPPRLPRPRPRPTKSPRP | 0.0789

----------
# System: Escherichia coli TOP10;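 further: peptides expressed intracellularly from a pBAD plasmid library in pooled LB shake-flask culture, induced with 0.3% L-arabinose, DNA abundance read by NGS, three biological replicates, DESeq2 with apeglm shrinkage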
# Assay summary: shrunken log2 fold change of peptide-encoding DNA abundance (4.5 h post-induction vs induction); higher = less antimicrobial activity (less host growth inhibition)
# Run conditions: time post-induction: 4.5 h; library: site-saturation at positions 5, 18, 19, 20
Item-by-item account of shrunken log2 fold change

Sequence code | shrunken log2 fold change
RRIRYRPPRLPRPRPRPSWVPRP | -0.597
RRIRLRPPRLPRPRPRPLCFPRP | -0.233
RRIRIRPPRLPRPRPRPLYVPRP | -1.06
RRIRTRPPRLPRPRPRPIFQPRP | -0.192
RRIRIRPPRLPRPRPRPGTIPRP | -0.438
RRIRRRPPRLPRPRPRPYATPRP | 0.418
RRIRNRPPRLPRPRPRPRALPRP | 0.117
RRIRARPPRLPRPRPRPKRKPRP | 0.654
RRIRWRPPRLPRPRPRPFSVPRP | -0.159
RRIRARPPRLPRPRPRPPLSPRP | 0.549
RRIRDRPPRLPRPRPRPTLLPRP | 0.758
RRIRHRPPRLPRPRPRPQAEPRP | -0.0254
RRIRERPPRLPRPRPRPDMAPRP | -0.00146
RRIRCRPPRLPRPRPRPYHCPRP | -0.271
RRIRHRPPRLPRPRPRPCWKPRP | -0.119
